Reference source for all entries: patent US6949542B2

property.name: melting point

Some compounds with recorded melting point:
CCc1ccc(-c2cccc(C3=Nc4cc(C)c(Cl)cc4NC(=O)C3)c2)cn1 182 to 185 °C
Cc1cc(-c2cccc(C3=Nc4cc(C)c(Cl)cc4NC(=O)C3)c2)nc(N(C)C)n1 248 to 250 °C

Give the reported melting point for this compound. CCOc1cc2c(cc1C(F)(F)F)NC(=O)CC(c1cccc(-c3ccnc(N4CCOCC4)c3)c1)=N2
199 to 200 °C

---

property.name: melting point

Some compounds with recorded melting point:
compound	melting point
Cc1ccncc1-c1cccc(C2=Nc3cc(C)c(C(F)(F)F)cc3NC(=O)C2)c1 [Example 233]	205 to 207 °C
COCCOc1cc2c(cc1C(F)(F)F)NC(=O)CC(c1cccc(-c3ccnc(C#N)c3)c1)=N2 [Example 209]	212 to 213 °C
O=C1CC(c2cccc(-c3cccnc3)c2)=Nc2cc(OCC(F)(F)F)c(Cl)cc2N1 [Example 202]	203 to 204 °C

Give the reported melting point for this compound. O=C1CC(c2cccc(-c3ccncc3)c2)=Nc2ccc(F)cc2N1 [Example 8]
190 to 192 °C

Give the reported melting point for this compound. COCCNc1cc(-c2cccc(C3=Nc4cc(C)c(Cl)cc4NC(=O)C3)c2)ncn1 [Example 334]
211 to 213 °C

Give the reported melting point for this compound. Cc1cc(-c2cccc(C3=Nc4cc(Cl)c(Cl)cc4NC(=O)C3)c2)ncn1 [Example 313]
220 to 222 °C

Give the reported melting point for this compound. Cc1ncccc1-c1cccc(C2=Nc3ccc(C(F)(F)F)cc3NC(=O)C2)c1 [Example 17]
219 to 220 °C

Give the reported melting point for this compound. Cc1cc(C)c(-c2cccc(C3=Nc4cc(OCC(F)(F)F)c(C(F)(F)F)cc4NC(=O)C3)c2)cn1 [Example 253]
176 to 180 °C

---

Quick reference for melting point among some molecules

Give the reported melting point for this molecule. Cc1cc2c(cc1Cl)NC(=O)CC(c1cccc(-c3ccnc(CC(C)C)c3)c1)=N2 [Example 277]
198 °C

Give the reported melting point for this molecule. COCCOc1cc2c(cc1C(F)(F)F)NC(=O)CC(c1cccc(-c3cccnc3)c1)=N2 [Example 208]
190 to 191 °C

---

Quick reference for melting point among some compounds

CN(C)c1cc2c(cc1C(F)(F)F)NC(=O)CC(c1cccc(-c3ncccn3)c1)=N2 221 to 223 °C

Give the reported melting point for this compound. Cc1cc(-c2cccc(C3=Nc4cc(C)c(Cl)cc4NC(=O)C3)c2)nc(NCCO)n1
197 to 199 °C

Give the reported melting point for this compound. Cc1cc2c(cc1Cl)NC(=O)CC(c1cccc(-c3cc(N)ncn3)c1)=N2
228 to 233 °C

Give the reported melting point for this compound. N#Cc1cc(-c2cccc(C3=Nc4ccc(C(F)(F)F)cc4NC(=O)C3)c2)ccn1
239 to 240 °C

Give the reported melting point for this compound. Cc1cc2c(cc1C(F)(F)F)NC(=O)CC(c1cccc(-c3ccnc(N4CCOCC4)c3)c1)=N2
240 to 242 °C

Give the reported melting point for this compound. Cc1cc(-c2cccc(C3=Nc4cc(C)c(Cl)cc4NC(=O)C3)c2)nc(N)n1
242 to 243 °C

Give the reported melting point for this compound. Cc1cc2c(cc1Cl)NC(=O)CC(c1cccc(-c3ccc(C4CC4)nc3)c1)=N2
198 to 199 °C

Give the reported melting point for this compound. COc1ccc(-c2cccc(C3=Nc4cc(C)c(C(F)(F)F)cc4NC(=O)C3)c2)cn1
219 to 224 °C

Give the reported melting point for this compound. CCOc1ccc2c(c1)N=C(c1cccc(-c3cccnc3)c1)CC(=O)N2
166 to 169 °C

Give the reported melting point for this compound. Cc1ncccc1-c1cccc(C2=Nc3ccc(F)cc3NC(=O)C2)c1
219 to 220 °C

Give the reported melting point for this compound. O=C1CC(c2cccc(-c3ccnc(C4CCCC4)c3)c2)=Nc2cc(OCC(F)(F)F)c(C(F)(F)F)cc2N1
147 to 148 °C

Give the reported melting point for this compound. Cc1nccc(-c2cccc(C3=Nc4cc(N(C)C)c(C(F)(F)F)cc4NC(=O)C3)c2)n1
211 to 212 °C

Give the reported melting point for this compound. O=C1CC(c2cccc(-c3cccnc3C3CC3)c2)=Nc2ccc(C(F)(F)F)cc2N1
171 to 173 °C
